experiment: in vivo; settings: rat
parameter: TD50 at 24 h (mg/kg)
Output spec: scalar in mg/kg, unitless text.

Ask: Provide measured TD50 at 24 h value, entry: CC(C)(C)c1cc(C=Cc2cccnc2)cc(C(C)(C)C)c1O
Reply: 200

====

biological target: 5-Lipoxygenase (Oryctolagus cuniculus, UniProt G1SNX0); construct: glycogen elicited rabbit PMNs; endogenous in cells; assay: Hydroxyacid Profile Assay of 5-Lipoxygenase Derived Arachidonic Acid Metabolites (5-HETE biosynthesis by glycogen-elicited PMNs)
Sequence (G1SNX0 1-674): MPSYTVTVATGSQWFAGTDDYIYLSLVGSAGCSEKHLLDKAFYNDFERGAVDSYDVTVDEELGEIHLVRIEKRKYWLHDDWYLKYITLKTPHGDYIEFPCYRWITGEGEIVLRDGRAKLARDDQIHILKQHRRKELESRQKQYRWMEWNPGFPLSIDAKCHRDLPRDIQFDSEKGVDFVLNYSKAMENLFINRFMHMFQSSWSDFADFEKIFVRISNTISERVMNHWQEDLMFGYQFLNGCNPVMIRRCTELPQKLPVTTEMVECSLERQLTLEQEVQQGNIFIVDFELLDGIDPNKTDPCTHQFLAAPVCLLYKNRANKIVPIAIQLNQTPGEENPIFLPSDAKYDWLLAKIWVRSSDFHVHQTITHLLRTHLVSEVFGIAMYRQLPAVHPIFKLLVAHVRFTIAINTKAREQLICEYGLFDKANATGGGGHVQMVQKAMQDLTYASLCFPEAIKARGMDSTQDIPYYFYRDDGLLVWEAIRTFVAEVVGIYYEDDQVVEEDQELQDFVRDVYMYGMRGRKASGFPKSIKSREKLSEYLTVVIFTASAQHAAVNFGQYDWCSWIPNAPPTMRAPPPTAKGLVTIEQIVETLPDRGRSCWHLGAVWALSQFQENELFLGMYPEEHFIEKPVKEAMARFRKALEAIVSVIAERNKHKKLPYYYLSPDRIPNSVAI
parameter: IC50

Ask: Provide measured IC50 value, entry: CC(C)(C)c1cc(C=Cc2cccnc2)cc(C(C)(C)C)c1O [Compound 1]
Reply: 3 µM

====

test system: MMC-16 cells, LTC4 release (lipoxygenase pathway); experiment: Mouse Mastocytoma Cell Leukotriene Release; type: cell-based; conditions: LTC4 release, MMC-16 cells
parameter: pIC50
// pIC50: -log10(molar conc.)

Ask: Provide measured pIC50 value, entry: CC(C)(C)c1cc(C=Cc2cccnc2)cc(C(C)(C)C)c1O [Compound 1]
Reply: 5.15
